Value source: the supplement of paper PMC7380943

tested on: CLZ3 (HCA2 human fibroblast dual HR-NHEJ reporter); assay: NHEJ repair efficiency (GFP+ cells) relative to control (log10 fold); higher = more non-homologous end joining; settings: 5 µM; doxycycline 0.5 ug/mL
RECORDED ENDPOINT: NHEJ repair efficiency (log10)

# annotated cases, reported NHEJ repair efficiency (log10) shown
The molecule COc1cc(/C=C/c2ccc(O)cc2)cc(OC)c1 showed NHEJ repair efficiency (log10) equal to 0.127

response.value for O=C(O)c1ccc(O)c(O)c1 [3,4-Dihydroxybenzoic acid] (field: NHEJ repair efficiency (log10)) = 0.00743

Lookup result for CC(C)(O)[C@H](O)COc1c2ccoc2cc2oc(=O)ccc12 [Oxypeucedanin Hydrate] ; measured NHEJ repair efficiency (log10): -0.0248

Item: CC(=O)CCc1ccc(O)cc1 | NHEJ repair efficiency (log10): -0.163

// NHEJ repair efficiency (log10) lookup, molecule = CC1OC(OC2C(OC3CCC4(C)C(CCC5(C)C4CC=C4C6CC(C)(C)CCC6(C(=O)OC6OC(COC7OC(CO)C(O)C(O)C7O)C(O)C(O)C6O)CCC45C)C3(C)CO)OCC(O)C2O)C(O)C(O)C1O (stereo not drawn) [Dipsacoside B] , result: -0.0161

For this molecule ( O=c1c2ccccc2nc2n1CCc1c-2[nH]c2ccccc12 ), measured NHEJ repair efficiency (log10) is -0.038

New cases:
NHEJ repair efficiency (log10) reported for this molecule C=C[C@@H]1[C@@H](O[C@@H]2O[C@H](CO)[C@@H](O)[C@H](O)[C@H]2O)OC=C(C(=O)OC)[C@@H]1CCOC(=O)c1cc(O)c(O)c(O)c1 [Cornuside I] : -0.0558

The recorded NHEJ repair efficiency (log10) for entry O=C(C=Cc1ccc(O)c(O)c1)O[C@H]1[C@H](O)C[C@](O)(C(=O)O)C[C@H]1OC(=O)C=Cc1ccc(O)c(O)c1 equals 0.118

###

system: CLZ3 (HCA2 human fibroblast dual HR-NHEJ reporter); assay: NHEJ repair efficiency (GFP+ cells) relative to control (log10 fold); higher = more non-homologous end joining; conditions: 5 µM; doxycycline 0.5 ug/mL;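 note: compound given one day ahead of doxycycline, which switches on I-SceI endonuclease to cut the chromosomally integrated reporter and create DSBs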
RECORDED ENDPOINT: NHEJ repair efficiency (log10)
Give the figure by itself; no unit, no explanation.

Answered examples (3):
NHEJ repair efficiency (log10) reported for this compound CC1(C)[C@@H](O[C@H]2O[C@H](C(=O)O)[C@@H](O)[C@H](O)[C@H]2O[C@@H]2O[C@H](C(=O)O)[C@@H](O)[C@H](O)[C@H]2O)CC[C@]2(C)[C@H]3C(=O)C=C4[C@@H]5C[C@@](C)(C(=O)O)CC[C@]5(C)CC[C@@]4(C)[C@]3(C)CC[C@@H]12 [Monoammonium Glycyrrhizinate] : 0.137

// Oc1cc(O)c2c(c1)OC(c1ccc(O)c(O)c1)C(OC1(c3ccc(O)c(O)c3)Oc3cc(O)cc(O)c3C(O)C1O)C2 (stereo not drawn) [Procyanidins] : NHEJ repair efficiency (log10) value = 0.0386

// sample C/C=C(/C)C(=O)O[C@H]1c2cc(OC)c(OC)c(OC)c2-c2c(cc3c(c2OC)OCO3)C[C@H](C)[C@]1(C)O [Wuweizi Ester B] , its NHEJ repair efficiency (log10) was -0.108

More entries:
For reference, reported NHEJ repair efficiency (log10) for CC(=O)OC(C)C(C)C(=O)OCC12C3CC(C)(C)[C@H](O[C@@H]1C[C@]1(C)C3=CCC3C4(C)CCC(O[C@@H]5O[C@H](C(=O)O)[C@@H](O[C@H]6O[C@H](CO)[C@@H](O)[C@H](O)[C@H]6O)[C@H](O)[C@H]5O[C@@H]5OC[C@@H](O)[C@H](O)[C@H]5O)[C@](C)(CO)C4CCC31C)C2O (stereo partly drawn) [Sodium Aescinate] stands at 0.101

Data point: C[C@@]1(CO)C[C@@H](O)C[C@@]2(C)[C@@H]3CC[C@](C)([C@@H](O)CO)C=C3CC[C@H]12 [Kirenol] ; NHEJ repair efficiency (log10) = -0.121

The compound identified as COc1c2c(cc3oc(CO)cc(=O)c13)O[C@H](C(C)(C)O)C2 [Cimifugin] registered its NHEJ repair efficiency (log10) at 0.0139

Given item Cc1cc(O)c(C(=O)CCC(C)C)c(=O)o1 [Pogostone] , the value recorded as its NHEJ repair efficiency (log10) is -0.0825

Lab note: O=C1c2cccc(O)c2C(=O)c2c(O)cccc21 [1,8-Dihydroxyanthraquinone] gave NHEJ repair efficiency (log10) of -0.286

For CC(C)=CCOc1c2ccoc2cc2oc(=O)ccc12 [Isoimperatorin] the compound record lists NHEJ repair efficiency (log10) as -0.032
